- Test System: Melanocortin receptor 5 (Homo sapiens, UniProt P33032)
- Sequence (P33032 whole entry): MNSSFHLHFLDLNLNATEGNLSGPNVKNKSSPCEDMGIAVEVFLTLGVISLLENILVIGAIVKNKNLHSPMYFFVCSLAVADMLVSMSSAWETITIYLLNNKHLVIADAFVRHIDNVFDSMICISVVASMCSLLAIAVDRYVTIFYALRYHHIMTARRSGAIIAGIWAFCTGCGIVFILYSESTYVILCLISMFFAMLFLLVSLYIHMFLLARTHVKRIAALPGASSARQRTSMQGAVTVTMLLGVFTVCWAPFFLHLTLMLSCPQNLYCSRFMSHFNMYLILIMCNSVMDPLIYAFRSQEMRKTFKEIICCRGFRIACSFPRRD
- Test Summary: Activity at hMC5R transfected in HEK293 cells assessed as intracellular cAMP accumulation relative to MT2
- Assay type: functional, cell-based
Measurement Label: Activity (%)
Respond with the bare value in %.

The cases that follow already have their Activity on record.
Molecule: CC(=O)N[C@H]1CSSC[C@H](C(=O)N[C@@H](Cc2c[nH]c3ccccc23)C(N)=O)N(CCCCN=C(N)N)C(=O)[C@@H](Cc2ccccc2)NC(=O)[C@H](Cc2c[nH]cn2)NC1=O
Test System: Melanocortin receptor 5 (Homo sapiens, UniProt P33032)
Activity (%): 0
--
Molecule: CC(=O)N[C@H]1CCC(=O)NCCC[C@@H](C(=O)N[C@@H](Cc2c[nH]c3ccccc23)C(N)=O)N(CCCCN=C(N)N)C(=O)[C@@H](Cc2ccccc2)NC(=O)[C@H](Cc2c[nH]cn2)NC1=O
Test System: Melanocortin receptor 5 (Homo sapiens, UniProt P33032)
Activity (%): 0

Please look at the following molecule next.
Prompt: Please indicate Activity recorded for CC(=O)N[C@H]1CCC(=O)NCCC(C(=O)N[C@@H](Cc2c[nH]c3ccccc23)C(N)=O)N(CCCCN=C(N)N)C(=O)[C@@H](Cc2ccccc2)NC(=O)[C@H](Cc2c[nH]cn2)NC1=O (stereo partly drawn)
Completion: 0

----------
- Test System: Melanocortin receptor 5 (Homo sapiens, UniProt P33032)
- Test Summary: Displacement of [125I]NDP-alphaMSH from human MC5 receptor expressed in HEK293 cells
- Type: cell-based
Active and inactive are the calls of the source. The calls are words filed in the database; no cut-off is given here.
Measurement Label: Activity

The cases that follow already have their Activity on record.
Molecule: CC(=O)N[C@H]1CSSC[C@H](C(=O)N[C@@H](Cc2c[nH]c3ccccc23)C(N)=O)N(CCCCN=C(N)N)C(=O)[C@@H](Cc2ccccc2)NC(=O)[C@H](Cc2c[nH]cn2)NC1=O
Test System: Melanocortin receptor 5 (Homo sapiens, UniProt P33032)
Result: inactive
//
Molecule: CC(=O)N[C@H]1CSSC[C@@H](C(=O)N(CCCCN=C(N)N)[C@H](Cc2c[nH]c3ccccc23)C(N)=O)NC(=O)[C@@H](Cc2ccccc2)NC(=O)[C@H](Cc2c[nH]cn2)NC1=O
Test System: Melanocortin receptor 5 (Homo sapiens, UniProt P33032)
Result: inactive
//
Molecule: CC(=O)N[C@H]1CSSC[C@@H](C(=O)N(CCCCN=C(N)N)[C@@H](Cc2c[nH]c3ccccc23)C(N)=O)NC(=O)[C@@H](Cc2ccccc2)NC(=O)[C@H](Cc2c[nH]cn2)NC1=O
Test System: Melanocortin receptor 5 (Homo sapiens, UniProt P33032)
Result: inactive
//
Molecule: CC(=O)N[C@H]1CSSC[C@@H](C(=O)N[C@@H](Cc2c[nH]c3ccccc23)C(N)=O)N(CCCCN=C(N)N)C(=O)[C@@H](Cc2ccccc2)NC(=O)[C@H](Cc2c[nH]cn2)NC1=O
Test System: Melanocortin receptor 5 (Homo sapiens, UniProt P33032)
Result: inactive
//
Molecule: CC(=O)N[C@H]1CCC(=O)NCCC(C(=O)N[C@@H](Cc2c[nH]c3ccccc23)C(N)=O)N(CCCCN=C(N)N)C(=O)[C@@H](Cc2ccccc2)NC(=O)[C@H](Cc2c[nH]cn2)NC1=O (some centres not stated)
Test System: Melanocortin receptor 5 (Homo sapiens, UniProt P33032)
Result: inactive
//
Molecule: CC(=O)N[C@H]1CCC(=O)NCCC[C@@H](C(=O)N[C@@H](Cc2c[nH]c3ccccc23)C(N)=O)N(CCCCN=C(N)N)C(=O)[C@@H](Cc2ccccc2)NC(=O)[C@H](Cc2c[nH]cn2)NC1=O
Test System: Melanocortin receptor 5 (Homo sapiens, UniProt P33032)
Result: inactive

Please look at the following molecule next.
Prompt: Please indicate Activity recorded for CC(=O)N[C@H]1CCC(=O)NCCC[C@@H](C(=O)N[C@@H](Cc2c[nH]c3ccccc23)C(N)=O)N(CCCCN=C(N)N)C(=O)[C@@H](Cc2ccc3ccccc3c2)NC(=O)[C@H](Cc2c[nH]cn2)NC1=O
Completion: inactive

----------
- Test System: Melanocortin receptor 3 (Homo sapiens)
- Sequence (P41968 whole entry): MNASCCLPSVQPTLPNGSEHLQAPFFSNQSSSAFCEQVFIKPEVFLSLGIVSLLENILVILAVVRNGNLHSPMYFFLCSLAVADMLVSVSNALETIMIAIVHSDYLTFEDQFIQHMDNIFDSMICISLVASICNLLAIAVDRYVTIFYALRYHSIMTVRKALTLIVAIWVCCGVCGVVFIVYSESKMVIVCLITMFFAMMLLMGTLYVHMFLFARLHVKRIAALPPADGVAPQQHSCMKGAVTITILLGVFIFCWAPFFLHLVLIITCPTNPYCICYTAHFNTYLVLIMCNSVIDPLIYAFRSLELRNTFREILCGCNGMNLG
- Test Summary: Activity at hMC3R transfected in HEK293 cells assessed as intracellular cAMP accumulation relative to MT2
- Assay type: functional, cell-based
- Set-up: concentration or dose not given beside the values
Measurement Label: Activity (%)
Respond with the bare value in %.

The cases that follow already have their Activity on record.
Compound: CC(=O)N[C@H]1CCC(=O)NCCC[C@@H](C(=O)N[C@@H](Cc2c[nH]c3ccccc23)C(N)=O)N(CCCCN=C(N)N)C(=O)[C@@H](Cc2ccc3ccccc3c2)NC(=O)[C@H](Cc2c[nH]cn2)NC1=O
Activity, %: 0
//
Compound: CC(=O)N[C@H]1CCC(=O)NCCC(C(=O)N[C@@H](Cc2c[nH]c3ccccc23)C(N)=O)N(CCCCN=C(N)N)C(=O)[C@@H](Cc2ccccc2)NC(=O)[C@H](Cc2c[nH]cn2)NC1=O (stereo partly drawn)
Activity, %: 0
//
Compound: CC(=O)N[C@H]1CSSC[C@@H](C(=O)N(CCCCN=C(N)N)C(Cc2c[nH]c3ccccc23)C(N)=O)NC(=O)[C@@H](Cc2ccc3ccccc3c2)NC(=O)[C@H](Cc2c[nH]cn2)NC1=O (stereo in doubt)
Activity, %: 0
//
Compound: CC(=O)N[C@H]1CSSC[C@@H](C(=O)N(CCCCN=C(N)N)[C@@H](Cc2c[nH]c3ccccc23)C(N)=O)NC(=O)[C@@H](Cc2ccccc2)NC(=O)[C@H](Cc2c[nH]cn2)NC1=O
Activity, %: 0
//
Compound: CC(=O)N[C@H]1CCC(=O)NCCC[C@@H](C(=O)N[C@@H](Cc2c[nH]c3ccccc23)C(N)=O)N(CCCCN=C(N)N)C(=O)[C@@H](Cc2ccccc2)NC(=O)[C@H](Cc2c[nH]cn2)NC1=O
Activity, %: 0
//
Compound: CC(=O)N[C@H]1CSSC[C@@H](C(=O)N[C@@H](Cc2c[nH]c3ccccc23)C(N)=O)N(CCCCN=C(N)N)C(=O)[C@@H](Cc2ccccc2)NC(=O)[C@H](Cc2c[nH]cn2)NC1=O
Activity, %: 0

Prompt: Please indicate Activity recorded for CC(=O)N[C@H]1CSSC[C@H](C(=O)N[C@@H](Cc2c[nH]c3ccccc23)C(N)=O)N(CCCCN=C(N)N)C(=O)[C@@H](Cc2ccccc2)NC(=O)[C@H](Cc2c[nH]cn2)NC1=O
Completion: 0

Prompt: Please indicate Activity recorded for CC(=O)N[C@H]1CSSC[C@@H](C(=O)N(CCCCN=C(N)N)[C@H](Cc2c[nH]c3ccccc23)C(N)=O)NC(=O)[C@@H](Cc2ccccc2)NC(=O)[C@H](Cc2c[nH]cn2)NC1=O
Completion: 0

----------
- Test System: Melanocyte-stimulating hormone receptor (Homo sapiens)
- Sequence (Q01726 whole entry, looked up): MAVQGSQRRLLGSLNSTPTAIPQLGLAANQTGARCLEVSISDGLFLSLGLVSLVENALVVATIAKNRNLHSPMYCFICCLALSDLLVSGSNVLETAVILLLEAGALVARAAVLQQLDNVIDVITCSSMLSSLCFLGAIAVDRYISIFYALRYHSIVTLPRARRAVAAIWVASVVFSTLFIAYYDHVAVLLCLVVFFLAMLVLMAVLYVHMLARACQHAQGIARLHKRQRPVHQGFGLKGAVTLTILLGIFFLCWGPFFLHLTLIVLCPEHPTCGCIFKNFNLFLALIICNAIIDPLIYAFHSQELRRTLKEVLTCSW
- Test Summary: Activity at hMC1R transfected in HEK293 cells assessed as intracellular cAMP accumulation relative to MT2
- Type: functional, cell-based
- Parameters: concentration or dose not given beside the values
# reported Activity; entries follow
Respond with the bare value in %.

The cases that follow already have their Activity on record.
Smiles Data: CC(=O)N[C@H]1CSSC[C@H](C(=O)N[C@@H](Cc2c[nH]c3ccccc23)C(N)=O)N(CCCCN=C(N)N)C(=O)[C@@H](Cc2ccccc2)NC(=O)[C@H](Cc2c[nH]cn2)NC1=O
Activity / %: 0
//
Smiles Data: CC(=O)N[C@H]1CCC(=O)NCCC[C@@H](C(=O)N[C@@H](Cc2c[nH]c3ccccc23)C(N)=O)N(CCCCN=C(N)N)C(=O)[C@@H](Cc2ccc3ccccc3c2)NC(=O)[C@H](Cc2c[nH]cn2)NC1=O
Activity / %: 0

Please look at the following compound next.
Prompt: Please indicate Activity recorded for CC(=O)N[C@H]1CSSC[C@@H](C(=O)N(CCCCN=C(N)N)[C@@H](Cc2c[nH]c3ccccc23)C(N)=O)NC(=O)[C@@H](Cc2ccccc2)NC(=O)[C@H](Cc2c[nH]cn2)NC1=O
Completion: 0

----------
- Test System: Melanocortin receptor 4 (Homo sapiens, UniProt P32245)
- Sequence (P32245 whole entry): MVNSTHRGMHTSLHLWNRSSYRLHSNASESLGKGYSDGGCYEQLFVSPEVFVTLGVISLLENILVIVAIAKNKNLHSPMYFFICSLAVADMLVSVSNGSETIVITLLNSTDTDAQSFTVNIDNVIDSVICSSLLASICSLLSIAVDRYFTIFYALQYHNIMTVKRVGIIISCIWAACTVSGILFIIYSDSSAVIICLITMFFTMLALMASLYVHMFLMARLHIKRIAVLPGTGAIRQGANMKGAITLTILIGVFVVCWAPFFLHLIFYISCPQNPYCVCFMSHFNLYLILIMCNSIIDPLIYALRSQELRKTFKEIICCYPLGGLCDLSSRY
- Test Summary: Activity at hMC4R transfected in HEK293 cells assessed as intracellular cAMP accumulation
pEC50: −log10 of the molar value.
Measurement Label: pEC50

The cases that follow already have their pEC50 on record.
Smiles Data: CC(=O)N[C@H]1CCC(=O)NCCC[C@@H](C(=O)N[C@@H](Cc2c[nH]c3ccccc23)C(N)=O)N(CCCCN=C(N)N)C(=O)[C@@H](Cc2ccccc2)NC(=O)[C@H](Cc2c[nH]cn2)NC1=O
pEC50: < 6.00
--
Smiles Data: CC(=O)N[C@H]1CSSC[C@@H](C(=O)N(CCCCN=C(N)N)[C@H](Cc2c[nH]c3ccccc23)C(N)=O)NC(=O)[C@@H](Cc2ccccc2)NC(=O)[C@H](Cc2cnc[nH]2)NC1=O
pEC50: < 6.00

Please look at the following compound next.
Prompt: Please indicate pEC50 recorded for CC(=O)N[C@H]1CSSC[C@@H](C(=O)N(CCCCN=C(N)N)[C@@H](Cc2c[nH]c3ccccc23)C(N)=O)NC(=O)[C@@H](Cc2ccccc2)NC(=O)[C@H](Cc2cnc[nH]2)NC1=O
Completion: < 6.00
